Assay: Total plasma clearance in Beagle dog at 2 mg/kg, iv by LC-MS/MS analysis
Format: ADME, organism-based, Canis lupus familiaris
measured-quantity: clearance (mL/min/kg)
Answers are plain numbers, in mL/min/kg.

Give the measured clearance of Cc1c(Nc2ncc3cc(Cl)c(C4CCN(C5COC5)CC4)cc3n2)cnn1C1CC1 .
23

###

Assay: Unbound brain-to-plasma concentration ratio in non-human primates administered orally and measured after 120 mins by LC/MS/MS analysis
Type: ADME
Details: po, read-out: K(p,uu,brain)
measured-quantity: Kp uu at 2 h
Numbers only.

compound: CCNc1nc(Nc2cc(F)c(C(=O)N3CCOCC3)cc2OC)ncc1C(F)(F)F
Kp uu at 2 h: 0.6

compound: CNc1nc(Nc2cn(C(C)(C)C#N)nc2C)ncc1C(F)(F)F [DNL-201]
Kp uu at 2 h: 0.46

Now let's try a different one.
Give the measured Kp uu at 2 h of C[C@@H]1CN(c2cc(-c3n[nH]c4ccc(OC5(C)CC5)cc34)ncn2)C[C@H](C)O1 [MLi-2] .
0.37
